Readings of IC50 for the listed molecules
- system: hCD38 Enzyme (Homo sapiens, UniProt P28907)
- method-notes: CD38 hydrolase enzymatic assay
- experimental-setup: rhCD38, ε-NAD substrate, 25° C., point reading time 20 mins; read-out: hCD38 Enzyme inhibition IC50
- Method: Also, a blank sample was prepared with 50 μl of sucrose buffer and no test compounds. The dynamic reading was performed at 25° C. with excitation light of 300 nm and emission light of 410 nm on the enzyme marker by contacting the above-prepared rhCD38 enzyme working fluid and the above-prepared solutions of the test compounds disclosed herein or the solution of the control. The readings were recorded for a total of 1 hour, and the data were analyzed with the point reading time of 20 mins. […]
endpoint-name: IC50

>>> result("N#Cc1cc(C(=O)Nc2ccc(F)cc2)nc(-n2ccnc2)n1")
"2 nM"
>>> result("COc1cc(C(=O)N[C@H]2CC[C@H](OC)CC2)nc(-n2ccnc2)c1")
"40 nM"
>>> result("O=C(Nc1cccc(F)c1)c1ccnc(-c2ccn[nH]2)n1")
"> 10000 nM"
>>> result("O=C(Nc1cccc(F)c1)c1cc(OC2CCC2)nc(-n2ccnc2)n1")
"8 nM"
>>> result("N#Cc1ccc(NC(=O)c2cc(C(F)(F)F)nc(-n3ccnc3)n2)cc1")
"3 nM"
>>> result("CO[C@H]1CC[C@H](NC(=O)c2cc(O)cc(-n3ccnc3)n2)CC1")
"895 nM"
>>> result("CO[C@H]1CC[C@H](NC(=O)c2cc(C(F)(F)F)cc(-n3ccnc3)n2)CC1")
"36 nM"
>>> result("CO[C@H]1CC[C@H](NC(=O)c2cc(N3CCCCC3)nc(-n3ccnc3)n2)CC1")
"46 nM"
>>> result("CO[C@H]1CC[C@H](NC(=O)c2ccc(C)c(-n3ccnc3)n2)CC1")
"> 10000 nM"

###

- system: hCD38 Enzyme (Homo sapiens, UniProt P28907)
- method-notes: CD38 hydrolase enzymatic assay
- experimental-setup: rhCD38, ε-NAD substrate, 25° C., point reading time 20 mins; read-out: hCD38 Enzyme inhibition IC50
endpoint-name: log10 of IC50 (log10 of the value in µM)

>>> number("CO[C@H]1CC[C@H](NC(=O)c2cc(C#N)nc(-n3ccnc3)n2)CC1 [compound 106]")
-1.74
>>> number("CO[C@H]1CC[C@H](NC(=O)c2cc(C)cc(-n3ccnc3)n2)CC1 [compound 52]")
-1.26
>>> number("CC(C)(C)NC(=O)c1cc(C(F)(F)F)nc(-n2ccnc2)n1 [compound 141]")
0.01
>>> number("CO[C@H]1CC[C@H](NC(=O)c2cc(-n3ccnc3)cc(Cl)n2)CC1 [compound 2]")
0.43
>>> number("CO[C@H]1CC[C@H](NC(=O)c2cc(-n3ccnc3)cc(-n3ccnc3)n2)CC1 [compound 1]")
-1.54
>>> number("CO[C@H]1CC[C@H](NC(=O)c2cc(C)nc(-n3ccnc3)n2)CC1 [compound 99]")
-2.05
>>> number("CO[C@H]1CC[C@H](NC(=O)c2nc(-n3ccnc3)cnc2N(C)C)CC1 [compound 46]")
-0.27
>>> number("O=C(Nc1cc(F)cc(F)c1)c1cc(C(F)(F)F)nc(-n2ccnc2)n1 [compound 174]")
-2.27
>>> number("COC(C)(C)c1cc(F)cc(NC(=O)c2cc(C(F)(F)F)nc(-n3ccnc3)n2)c1 [compound 179]")
-0.23
>>> number("CNc1cc(C(=O)N[C@H]2CC[C@H](OC)CC2)nc(-n2ccnc2)n1 [compound 24]")
-1.52
>>> number("CO[C@H]1CC[C@H](NC(=O)c2cc(-n3ccnn3)cc3cc[nH]c23)CC1 [compound 54]")
0.84
>>> number("C[C@H]1CC[C@H](NC(=O)c2cc(C(F)(F)F)nc(-n3ccnc3)n2)CC1 [compound 146]")
-1.74
>>> number("O=C(O)COc1ncc(NC(=O)c2cc(C(F)(F)F)nc(-n3ccnc3)n2)cn1 [compound 194]")
-1.52
>>> number("N#Cc1cc(C(=O)Nc2cccnc2)nc(-n2ccnc2)n1 [compound 186]")
-2.70
>>> number("CC(NC(=O)c1cncc(-n2ccnc2)n1)C1CCCCC1 (stereo not drawn) [compound 39]")
-0.65
>>> number("O=C(NCc1ccccc1)c1cncc(-n2ccnc2)n1 [compound 38]")
-0.34
>>> number("CO[C@H]1CC[C@H](NC(=O)c2nc(-n3ccnc3)ccc2C(F)(F)F)CC1 [compound 151]")
0.19
>>> number("CC1(C)CCC(NC(=O)c2cc(C(F)(F)F)nc(-n3ccnc3)n2)CC1 [compound 138]")
-1.12
>>> number("O=C(NC1CCCCC1)c1cncc(-n2ccnc2)n1 [compound 30]")
-1.38
>>> number("O=C(Nc1ccccc1F)c1ccnc(-n2ccnc2)n1 [compound 84]")
-1.89
>>> number("CO[C@H]1CC[C@H](NC(=O)c2nc(-n3ccnc3)ccc2Cl)CC1 [compound 75]")
-0.41
>>> number("CO[C@H]1CC[C@H](NC(=O)c2ccc(Cl)c(-n3ccnc3)n2)CC1 [compound 77]")
0.39
>>> number("CN(C)CCOc1cc(F)cc(NC(=O)c2cc(C(F)(F)F)nc(-n3ccnc3)n2)c1 [compound 181]")
-1.60
>>> number("CO[C@H]1CC[C@H](NC(=O)c2cc(-c3cncs3)cc3cc[nH]c23)CC1 [compound 29]")
-1.60
>>> number("N#Cc1cc(C(=O)Nc2cncnc2)nc(-n2ccnc2)n1 [compound 189]")
-1.92
>>> number("O=C(Nc1ccccc1Cl)c1ccnc(-n2ccnc2)n1 [compound 85]")
-1.54
>>> number("N#Cc1cncc(NC(=O)c2cc(C(F)(F)F)nc(-n3ccnc3)n2)c1 [compound 169]")
-1.70
>>> number("CO[C@H]1CC[C@H](NC(=O)c2cc(Cl)cc(-n3ccnc3)n2)CC1 [compound 51]")
-2.05
>>> number("COc1cc(C(=O)N[C@H]2CC[C@H](OC)CC2)nc(-n2ccnc2)n1 [compound 105]")
-1.70

###

- system: hCD38 Enzyme (Homo sapiens)
- Construct: purchased Sino Biological Inc 10818-H08H
- method-notes: CD38 hydrolase enzymatic assay
- Assay type: biochemical
- experimental-setup: rhCD38, ε-NAD substrate, 25° C., point reading time 20 mins; read-out: hCD38 Enzyme inhibition IC50
pIC50: −log10 of the molar value.
The threshold is inclusive: pIC50 of exactly 8 counts as rule met; values below receive rule not met.

>>> class_label("CN1CCC(NC(=O)c2cncc(-n3ccnc3)n2)CC1")
"rule not met"
>>> class_label("CC(=O)N1CCC(NC(=O)c2cncc(-n3ccnc3)n2)CC1")
"rule not met"
>>> class_label("N#Cc1ccc(NC(=O)c2cc(C(F)(F)F)nc(-n3ccnc3)n2)cn1")
"rule met"
>>> class_label("Cc1cn(-c2cncc(C(=O)NC3CCCCC3)n2)cn1")
"rule not met"
>>> class_label("COc1ccc(C(=O)N[C@H]2CC[C@H](OC)CC2)nc1-n1ccnc1")
"rule not met"
>>> class_label("O=C(NC1CCCCC1)c1cc(N2CCCCC2)nc(-n2ccnc2)n1")
"rule not met"
>>> class_label("CC(C)(C)NC(=O)c1cncc(-n2ccnc2)n1")
"rule not met"
>>> class_label("O=C(Nc1cc(F)cc(N2CC[C@H](O)C2)c1)c1cc(C(F)(F)F)nc(-n2ccnc2)n1")
"rule not met"
>>> class_label("O=C(NC1CCOCC1)c1cncc(-n2ccnc2)n1")
"rule not met"
>>> class_label("CC(C)NC(=O)c1cncc(-n2ccnc2)n1")
"rule not met"
>>> class_label("Cc1nccn1-c1cncc(C(=O)NC2CCCCC2)n1")
"rule not met"
>>> class_label("COCCO[C@H]1CC[C@H](NC(=O)c2cc(C(F)(F)F)nc(-n3ccnc3)n2)CC1")
"rule not met"
>>> class_label("CO[C@H]1CC[C@H](NC(=O)c2cc(-c3cncs3)ccc2N)CC1")
"rule not met"
>>> class_label("O=C(Nc1ccccc1)c1ccnc(-n2ccnc2)n1")
"rule met"
>>> class_label("O=C(Nc1ccncc1)c1cc(C(F)(F)F)cc(-n2ccnc2)n1")
"rule met"

###

- system: hCD38 Enzyme (Homo sapiens, UniProt P28907)
- Sequence (P28907 43-300 limits assumed): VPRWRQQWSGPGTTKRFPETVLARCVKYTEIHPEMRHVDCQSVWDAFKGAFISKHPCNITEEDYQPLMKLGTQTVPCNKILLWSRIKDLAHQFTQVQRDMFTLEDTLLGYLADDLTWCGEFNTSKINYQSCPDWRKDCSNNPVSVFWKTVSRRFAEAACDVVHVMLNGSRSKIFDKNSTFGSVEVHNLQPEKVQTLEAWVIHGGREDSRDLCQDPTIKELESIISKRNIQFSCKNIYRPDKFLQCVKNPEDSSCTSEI
- method-notes: CD38 hydrolase enzymatic assay
- experimental-setup: rhCD38, ε-NAD substrate, 25° C., point reading time 20 mins; read-out: hCD38 Enzyme inhibition IC50
Rule: measured IC50 below 40 nM gets 1.0; anything equal to or greater than 40 nM gets 0.0.

>>> class_label("COCCOc1cc(F)cc(NC(=O)c2cc(C(F)(F)F)nc(-n3ccnc3)n2)c1")
1.0
>>> class_label("O=C(Nc1cccc(F)c1)c1ccc(C(F)(F)F)c(-n2ccnc2)n1")
0.0
>>> class_label("O=C(NC1CCCCC1)c1cccc(-n2ccnc2)n1")
0.0
>>> class_label("O=C(Nc1cncc(F)c1)c1cc(C(F)(F)F)nc(-n2ccnc2)n1")
1.0
>>> class_label("CO[C@H]1CC[C@H](NC(=O)c2nc(-n3ccnc3)cnc2N)CC1")
1.0
>>> class_label("O=C(Nc1ccccc1)c1cccc(-n2ccnc2)n1")
1.0
>>> class_label("CNc1ncc(-n2ccnc2)nc1C(=O)N[C@H]1CC[C@H](OC)CC1")
1.0
>>> class_label("O=C(Nc1cccc(F)c1)c1ccnc(-n2cccn2)n1")
0.0
>>> class_label("CO[C@H]1CC[C@H](NC(=O)c2nc(-c3cncs3)cnc2N)CC1")
0.0
